Source: patent US20220057378A1

Here the recorded fluorescence response of strain Cu1 (on-target copper) is given for each entry.
System: Cu1
Assay: microplate specificity test with on- and off-target heavy metals (fluorescence)
Assay type: cell-based, E. coli
Conditions: on-target = 1, no-toxin control = 0; As 1.3, Cd 0.44, Cr(VI) 2, Cu 20, Pb 1, Hg 0.1, Co 20, Fe 500, Ni 1.7, Zn 7.6 μM
Form field (numeric): enter value without unit.

Illustrative cases are given below, each with its answer.
[Cd]; −0.08
[As]; −0.05
[Co]; −0.01

Now turn to the next molecule.
Please give measured fluorescence response of strain Cu1 (on-target copper) of the following entry: `[Pb]`
−0.05

* * *

System: Hg3
Test: microplate specificity test with on- and off-target heavy metals (fluorescence)
Format: cell-based, E. coli
Conditions: on-target = 1, no-toxin control = 0; As 1.3, Cd 0.44, Cr(VI) 2, Cu 20, Pb 1, Hg 0.1, Co 20, Fe 500, Ni 1.7, Zn 7.6 μM
Mark Fulfilled for reported fluorescence response of strain Hg3 (on-target mercury) of -0.3 or greater; mark Not fulfilled for anything smaller.

Please review the following examples before continuing.
[Cr+6]; Not fulfilled
[Cd]; Fulfilled
[As]; Fulfilled
[Zn]; Fulfilled

Form field: fluorescence response of strain Hg3 (on-target mercury) at least -0.3? Entry: `[Pb]`
Fulfilled

Form field: fluorescence response of strain Hg3 (on-target mercury) at least -0.3? Entry: `[Fe]`
Not fulfilled

Form field: fluorescence response of strain Hg3 (on-target mercury) at least -0.3? Entry: `[Cu]`
Fulfilled

* * *

Test system: Cu1
Assay: microplate specificity test with on- and off-target heavy metals (fluorescence)
Format: cell-based, E. coli
Details: on-target = 1, no-toxin control = 0; As 1.3, Cd 0.44, Cr(VI) 2, Cu 20, Pb 1, Hg 0.1, Co 20, Fe 500, Ni 1.7, Zn 7.6 μM
Please note: fluorescence response of strain Cu1 (on-target copper) exactly at 0.2 is Not fulfilled. Only values below 0.2 get Fulfilled.

Please review the following examples before continuing.
[Fe] [Iron]; Fulfilled
[Ni] [Nickel]; Fulfilled
[Zn] [Zinc]; Fulfilled

Is the reported fluorescence response of strain Cu1 (on-target copper) for [Cu] [Copper] strictly below 0.2?
Not fulfilled

Is the reported fluorescence response of strain Cu1 (on-target copper) for [Cr+6] [Chromium(VI)] strictly below 0.2?
Fulfilled
